Reference for the values: PubChem BioAssay

# tested_system: Alpha-2C adrenergic receptor (Homo sapiens)
# test: modulators of alpha2C/GIRK thallium flux, primary screen, cell-based, HEK293 alpha2C/GIRK1/2 (AID 624);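 further: slope of fluorescence ratio to pre-addition baseline per second over 15 to 24 s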
# test_conditions: thallium flux BTC fluorescence, at 10 µM, actives lie on both sides
The following compounds are listed with their measured slope values.
Just the number, please.

compound: Cc1ccc(/C=c2\sc3n(c2=O)CN(c2ccc(Br)cc2)CN=3)o1
tested_system: Alpha-2C adrenergic receptor (Homo sapiens)
readout: slope
value_reported: 0.00432

Given the entry CCOC(=O)c1[nH]c2ccc(Br)cc2c1NC(=O)CCN1CCC(C(=O)OCC)CC1 , report its measured slope.
0.00522

Also C=CCSc1nnc2n(-c3ccccc3OC)c(=O)c3c4c(sc3n12)CCC4 , if possible.
0.00538

Ok, now CC1(C)Cc2c(c(-c3ccccc3)nc(N3CCCC3)c2C(N)=O)CO1
0.0059

Next up: CCCCNC(=O)C(C#N)c1nc2ccccc2nc1N1CCN(Cc2ccc3c(c2)OCO3)CC1 (stereo not given)
0.00451

Try COc1cccc(C2/C(=C(/O)c3ccc(C)cc3)C(=O)C(=O)N2Cc2ccco2)c1 (stereo not given) next.
0.00539

Now give it for N#CC1=C2SCC(O)(c3ccccc3)N2C(=O)CC1c1ccccc1 (stereo not given) too.
0.00444
